meta.source: BindingDB's records for doi:10.1016/j.bmcl.2010.12.016

protocol_details: Antagonist activity against CRTh2 receptor in human eosinophils assessed as cell shape change by flow cytometry
Criterion: IC50 strictly under 10 nM. Met: true. Not met: false.

The examples below pair each entry with its known result.
[[record]]
item_smiles = "CCN(Cc1cc(-c2cnn(C)c2)ccc1-c1cc(CC(=O)O)ccc1OC)C(=O)C1CC1"
class_assignment = "true"

[[record]]
item_smiles = "CCN(Cc1cc(-c2cnc3ccccc3c2)ccc1-c1cc(CC(=O)O)ccc1OC)C(=O)C1CC1"
class_assignment = "false"

[[record]]
item_smiles = "CCOc1ccc(-c2ccc(-c3cc(CC(=O)O)ccc3OC)c(CN(CC)C(=O)C3CC3)c2)cn1"
class_assignment = "true"

[[record]]
item_smiles = "CCN(Cc1cc(-c2ccc(F)cn2)ccc1-c1cc(CC(=O)O)ccc1OC)C(=O)C1CC1"
class_assignment = "false"


With those in mind, consider the next molecule.
INPUT: Check if IC50 falls below 10 nM for `CCN(Cc1cc(-c2ncc(OC)cn2)ccc1-c1cc(CC(=O)O)ccc1OC)C(=O)C1CC1` .
OUTPUT: false
